Molecular target: T1, recombinant rat MASP1 active protease (amino acids 302-704, C-terminal His Tag) (rat, UniProt Q8CHN8 302-704)
T1 sequence: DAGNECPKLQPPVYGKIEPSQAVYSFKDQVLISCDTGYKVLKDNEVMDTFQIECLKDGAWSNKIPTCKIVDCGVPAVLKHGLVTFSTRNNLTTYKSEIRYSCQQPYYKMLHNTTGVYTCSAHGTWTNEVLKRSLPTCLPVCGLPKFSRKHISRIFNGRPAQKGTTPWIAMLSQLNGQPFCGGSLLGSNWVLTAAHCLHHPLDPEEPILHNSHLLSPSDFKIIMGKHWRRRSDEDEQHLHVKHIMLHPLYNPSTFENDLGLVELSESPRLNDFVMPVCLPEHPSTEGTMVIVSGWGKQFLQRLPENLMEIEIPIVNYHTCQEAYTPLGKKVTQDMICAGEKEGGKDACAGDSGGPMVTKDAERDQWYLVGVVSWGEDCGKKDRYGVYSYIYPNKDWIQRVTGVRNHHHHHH
Test: cell-based or functional assay
Bridge positions count the residues as written; N and C are the ends. Square brackets hold non-standard residues; d marks the D form. Ends that are not written are not given here. Oic = O=C(O)[C@@H]1C[C@@H]2CCCC[C@@H]2N1; Pen = CC(C)(S)[C@H](N)C(=O)O; β3hP = O=C(O)C[C@@H]1CCCN1; Sar = CNCC(=O)O
endpoint: rat MASP1 IC50 (nM)
Quick note: give the figure in nM, leave out the unit.

In: Returns the measured rat MASP1 IC50 for the input binder. Input: [Sar]ICSRSLP[Oic]I[Pen]IP[β3hP]-OH (disulfide 3-11; N-terminus assumed; SMILES CC[C@H](C)[C@H](NC(=O)CNC)C(=O)N[C@H]1CSSC(C)(C)[C@@H](C(=O)N[C@H](C(=O)N2CCC[C@H]2C(=O)N2CCC[C@H]2CC(=O)O)[C@@H](C)CC)NC(=O)[C@H]([C@@H](C)CC)NC(=O)[C@@H]2C[C@@H]3CCCC[C@@H]3N2C(=O)[C@@H]2CCCN2C(=O)[C@H](CC(C)C)NC(=O)[C@H](CO)NC(=O)[C@H](CCCNC(=N)N)NC(=O)[C@H](CO)NC1=O) [Example 455: ((N-Me)G)-IC+SRSLP-(Oic)-I-(Pen)+IP-(beta-homo-P)-OH]
Out: 41
